biological target: AII receptors (cell surface membrane fraction, guinea pig adrenal gland) (Cavia porcellus, UniProt Q9WV26)
Sequence (Q9WV26 whole entry): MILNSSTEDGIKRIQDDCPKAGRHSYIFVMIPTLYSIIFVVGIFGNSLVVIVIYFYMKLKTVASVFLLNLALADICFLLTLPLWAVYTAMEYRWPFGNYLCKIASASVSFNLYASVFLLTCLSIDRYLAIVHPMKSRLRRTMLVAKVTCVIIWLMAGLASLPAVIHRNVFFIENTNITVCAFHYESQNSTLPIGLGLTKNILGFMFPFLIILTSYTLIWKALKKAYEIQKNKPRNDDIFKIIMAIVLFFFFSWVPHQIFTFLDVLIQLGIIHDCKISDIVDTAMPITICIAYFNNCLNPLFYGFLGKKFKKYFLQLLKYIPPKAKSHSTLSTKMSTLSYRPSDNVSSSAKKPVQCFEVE
property: pIC50
Please report pIC50 as the negative decimal logarithm of the molar concentration, giving only the number.

Lookup: Requested field: pIC50. Item: CCCCc1nc2ccccc2n1Cc1ccc(C(=O)NS(=O)(=O)c2ccccc2)cc1 [Example 3]
Found: 7.00
